Reference source: the supplement of paper PMC10811239

Please respond with reported bioluminescence for every item in the list.
- Tested on: LEGO organoid PT (PTEN-/-; TP53-/-)
- protocol: bioluminescence (viable cell) signal fold change after vs before treatment, normalised to DMSO (ratio); higher = more tumour cell growth / less inhibition
- reported.conditions: 10 µM; treatment time 6 days

Entry CN(C)C(=O)Oc1ccc[n+](C)c1.[Br-] ; bioluminescence = 0.942

Entry COc1ccc(C(CN(C)C)C2(O)CCCCC2)cc1.Cl (stereo not given) [Venlafaxine hydrochloride] ; bioluminescence = 0.615

Entry CCN(C)C(=O)Oc1cccc([C@H](C)N(C)C)c1 ; bioluminescence = 1.31

Entry CCC1(c2ccc(N)cc2)CCC(=O)NC1=O (stereo not given) [Aminoglutethimide] ; bioluminescence = 0.724

Entry CCN(C)C(=O)Oc1cccc([C@H](C)N(C)C)c1.O=C(O)[C@H](O)[C@@H](O)C(=O)O [Rivastigmine tartrate] ; bioluminescence = 2.08
